Hey, just so you know, these numbers are from paper PMC11480844.

B1: H2-Kb / Ed39 (parent complex)
chain 1: GEQVEQRPPHLSVREGDSAVIICTYTDPNSYYFFWYKQEPGAGLQLLMKVFSSTEINEGQGFTVLLNKKDKQLSLNLTAAHPGDSAVYFCATMSNYNVLYFGSGTKLTVEP
chain 2: GALVYQYPRRTICKSGTSMRMECQAVGFQATSVAWYRQSPQKTFELIALSTVNSAIKYEQNFTQEKFPISHPNLSFSSMTVLNAYLEDRGLYLCGARDGSYEQYFGPGTRLTVL
chain 3: not shown
chain 4: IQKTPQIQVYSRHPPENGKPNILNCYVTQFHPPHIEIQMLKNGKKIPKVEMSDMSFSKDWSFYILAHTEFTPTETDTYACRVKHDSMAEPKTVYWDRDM
chain 5: SIINFEKL

Variants of: B1
method-description: % of reporter cells activated (NFAT-GFP), raw; also: test concentration or dose not given here
readout-label: ratio to parent

Recorded ratio to parent, per entry:
chain 5 K7E    0.00639
chain 5 E6T    0.034
chain 5 F5G    0.454
chain 5 S1Y    0.351
chain 5 K7W    0.355

I = chain 5 I3D
II = chain 5 E6H
For this pair, I and II , which shows a numerically higher ratio to parent? Mark your answer with the label of the selected entry.
I
(I: 0.402, II: 0.0355)

1 = chain 5 I3E
2 = chain 5 N4T
For this pair, 1 and 2 , which shows a numerically higher ratio to parent? Mark your answer with the label of the selected entry.
1
(1: 0.558, 2: 0.00203)

a = chain 5 F5N
b = chain 5 E6K
For this pair, a and b , which shows a numerically higher ratio to parent? Mark your answer with the label of the selected entry.
a

a = chain 5 I2D
b = chain 5 I2M
c = chain 5 N4A
Put the variants in ascending order of ratio to parent. Give the order by naming the labels one after another as requested.
c, a, b
(c: 0.0243, a: 0.612, b: 0.907)

P = chain 5 L8S
Q = chain 5 E6P
R = chain 5 K7G
S = chain 5 I2S
T = chain 5 S1C
Put the variants in ascending order of ratio to parent. Give the order by naming the labels one after another as requested.
Q, T, R, P, S
(Q: 0.00676, T: 0.0621, R: 0.0989, P: 0.462, S: 0.779)

A = chain 5 S1K
B = chain 5 K7A
Of the pair A and B , name the member with the lesser recorded ratio to parent. Mark your answer with the label of the selected entry.
A

a = chain 5 K7R
b = chain 5 F5Q
For this pair, a and b , which shows a numerically higher ratio to parent? Mark your answer with the label of the selected entry.
b
(b: 0.712, a: 0.355)

A = chain 5 I2H
B = chain 5 I2C
C = chain 5 N4C
D = chain 5 F5R
Please list the entries, largest ratio to parent first. Give the order by naming the labels one after another as requested.
B, D, A, C
(B: 0.926, D: 0.562, A: 0.244, C: 0.0192)
